# tested-target: BRD9 (Homo sapiens)
# Sequence (Q9H8M2 whole entry): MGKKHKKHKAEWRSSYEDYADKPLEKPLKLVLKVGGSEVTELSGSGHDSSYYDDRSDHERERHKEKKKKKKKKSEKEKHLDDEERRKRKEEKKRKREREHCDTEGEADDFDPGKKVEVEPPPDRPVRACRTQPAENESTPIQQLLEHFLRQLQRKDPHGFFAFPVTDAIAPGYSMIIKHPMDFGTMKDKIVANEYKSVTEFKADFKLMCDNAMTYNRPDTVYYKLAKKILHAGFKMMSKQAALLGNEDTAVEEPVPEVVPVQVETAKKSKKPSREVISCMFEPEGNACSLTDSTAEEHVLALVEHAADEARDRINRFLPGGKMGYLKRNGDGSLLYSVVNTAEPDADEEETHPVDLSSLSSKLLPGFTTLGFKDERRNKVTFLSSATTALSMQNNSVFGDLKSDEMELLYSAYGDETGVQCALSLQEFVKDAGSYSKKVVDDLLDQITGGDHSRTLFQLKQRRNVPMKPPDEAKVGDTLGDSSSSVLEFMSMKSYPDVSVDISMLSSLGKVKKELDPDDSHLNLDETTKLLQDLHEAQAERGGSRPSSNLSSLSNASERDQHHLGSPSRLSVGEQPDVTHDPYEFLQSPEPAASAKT
# experiment-summary: Degradation of BRD9 (IF), immunofluorescence in MV4-11 cells, 24 hours (Assay Protocol 2)
# Format: cell-based
# Design: A suspension of MV4-11 cells (ATCC CRL-9591) was prepared; host or cells: MV4-11
# conditions: MV4-11, Assay protocol 2; BRD9 degradation; read-out: Dmax
observed-property: Dmax

Check out these entries, answers already filled in.
compound	tested-target	experimental-value
COc1cc(-c2cn(C)c(=O)c(C)c2C)cc(OC)c1CN1CCN(Cc2ccc3c(c2)[C@H](C(C)C)N(C(=O)/C(C#N)=C/C(C)(C)CF)CC3)C2(CC2)C1 (single isomer, unassigned) [Compound C96]	BRD9 (Homo sapiens)	> 75%
COc1cc(-c2cn(C)c(=O)c(C)c2C)cc(OC)c1CN1CCN(Cc2cccc3c2CCN(C(=O)/C(C#N)=C/C(C)(C)C)C3C)[C@@H](C)C1 (mixture of isomers) [Compound B102]	BRD9 (Homo sapiens)	> 75%
COc1cc(-c2cn(C)c(=O)c(C)c2C)cc(OC)c1CN1CCN(Cc2ccc3c(c2)[C@@H](C(C)C)N(C(=O)/C(C#N)=C/C(C)(C)CF)CC3)C2(CC2)C1 (single isomer, unassigned) [Compound C97]	BRD9 (Homo sapiens)	70 to 75%
CCCC(c1ccccc1CCC(=O)N1CCN(Cc2c(OC)cc(-c3cn(C)c(=O)c(C)c3C)cc2OC)CC1)N(C)C(=O)/C(C#N)=C/c1nccs1 (mixture of isomers) [Compound B186]	BRD9 (Homo sapiens)	> 75%
COc1cc(-c2cn(C)c(=O)c(C)c2C)cc(OC)c1CN1CCC2(CC1)CCN(c1cccc3c1CCN(C(=O)/C(C#N)=C/C(C)(C)C)C3C)CC2 (mixture of isomers) [Compound B39]	BRD9 (Homo sapiens)	40 to 70%
COc1cc(-c2cn(C)c(=O)c(C)c2C)cc(OC)c1CN1CCN(Cc2cccc3c2CCN(C(=O)/C(C#N)=C/C(C)(C)C)C3C)CC1(C)C (mixture of isomers) [Compound B159]	BRD9 (Homo sapiens)	40 to 70%

What Dmax value was documented for this compound, COc1cc(-c2cn(C)c(=O)c(C)c2C)cc(OC)c1CN1CCN(Cc2cccc3c2CCN(C(=O)/C(C#N)=C/C(C)(C)F)[C@H]3C)C2(CC2)C1 (mixture of isomers) [Compound C30] ?
40 to 70%

What Dmax value was documented for this compound, COc1cc(-c2cn(C)c(=O)c(C)c2C)cc(OC)c1CN1CCN(Cc2ccc3c(c2)CN(C(=O)/C(C#N)=C/C(C)(C)C)CC3)C2(CC2)C1 [Compound C1] ?
> 75%

---

# tested-target: BRD9 (Homo sapiens)
# experiment-summary: Degradation of BRD9 (IF), immunofluorescence in MV4-11 cells, 24 hours (Assay Protocol 2)
# Format: cell-based
# Set-up: A suspension of MV4-11 cells (ATCC CRL-9591) was prepared; host or cells: MV4-11
# conditions: Assay protocol 2; BRD9 degradation; read-out: DC50
observed-property: DC50

Check out these entries, answers already filled in.
molecule	DC50
COc1cc(-c2cn(C)c(=O)c(C)c2C)cc(OC)c1CN1CCN(Cc2cccc3c2CCN(C(=O)/C(C#N)=C/C(C)(C)CF)C3C(C)C)C2(CC2)C1 (single isomer, unassigned) [Compound C76]	1.25 to 10 nM
COc1cc(-c2cn(C)c(=O)c(C)c2C)cc(OC)c1CN1CCN(Cc2ccc3c(c2)[C@H](C)N(C(=O)/C(C#N)=C/C(C)(C)C)CC3)[C@H](C)C1 (single isomer, unassigned)	25 to 1000 nM

Could you now look at the following molecule, please?
What DC50 value was documented for this molecule, COc1cc(-c2cn(C)c(=O)c(C)c2C)cc(OC)c1CN1CCN(Cc2cccc3c2CCN(C(=O)/C(C#N)=C/C2(C)CCC2)C3C)C2(CC2)C1 (mixture of isomers) ?
< 1.25 nM
